These data points were gathered from patent US4933104A.

- assayProtocol: negative dichroism S in a liquid-crystalline mixture
- Assay type: physicochemical
- conditionsUsed: liquid-crystalline mixture ZK-807
The entries below are paired with their reported negative dichroism S.
assayMetric: negative dichroism S

[[record]]
compound = "CCCCCC1CCC(c2ccc(C(=O)Nc3cc(CCCC)c(O)c4c3C(=O)c3c(NC(=O)c5ccc(C6CCC(CCCCC)CC6)cc5)cc(CCCC)c(OC(=O)c5ccc(C6CCC(CCCCC)CC6)cc5)c3C4=O)cc2)CC1 (stereo not shown)"
observedresult = -0.38

[[record]]
compound = "CCCCCC1CCC(c2ccc(C(=O)Nc3cc(CCCC)c(OC(=O)CCC)c4c3C(=O)c3c(NC(=O)c5ccc(C6CCC(CCCCC)CC6)cc5)cc(CCCC)c(OC(=O)CCC)c3C4=O)cc2)CC1 (stereo not shown)"
observedresult = -0.35

[[record]]
compound = "CCCCc1cc(NC(=O)c2ccc(C3CCC(CCCC)CC3)cc2)c2c(c1OC(=O)CCC)C(=O)c1c(OC(=O)CCC)c(CCCC)cc(NC(=O)c3ccc(C4CCC(CCCC)CC4)cc3)c1C2=O (stereo not shown)"
observedresult = -0.37

[[record]]
compound = "CCCCCC1CCC(c2ccc(C(=O)Nc3cc(CCCC)c(O)c4c3C(=O)c3c(NC(=O)c5ccc(C6CCC(CCCCC)CC6)cc5)cc(CCCC)c(OC(=O)CCC)c3C4=O)cc2)CC1 (stereo not shown)"
observedresult = -0.38

[[record]]
compound = "CCCCCCc1ccc(C(=O)Nc2cc(CCCCC)c(O)c3c2C(=O)c2c(NC(=O)c4ccc(CCCCCC)cc4)cc(CCCCC)c(OC(=O)c4ccc(CCCCCC)cc4)c2C3=O)cc1"
observedresult = -0.31

[[record]]
compound = "CCCCc1ccc(C(=O)Nc2cc(CCCC)c(OC(=O)c3ccc(CCCC)cc3)c3c2C(=O)c2c(NC(=O)c4ccc(CCCC)cc4)cc(CCCC)c(OC(=O)c4ccc(CCCC)cc4)c2C3=O)cc1"
observedresult = -0.33

[[record]]
compound = "CCCCCC1CCC(c2ccc(C(=O)Nc3cc(CCCC)c(OC(=O)C4CCC(CCCC)CC4)c4c3C(=O)c3c(NC(=O)c5ccc(C6CCC(CCCCC)CC6)cc5)cc(CCCC)c(OC(=O)C5CCC(CCCC)CC5)c3C4=O)cc2)CC1 (stereo not shown)"
observedresult = -0.38

[[record]]
compound = "CCCCc1cc(NC(=O)C2CCC(CCCC)CC2)c2c(c1OC(=O)c1ccc(C3CCC(CCCC)CC3)cc1)C(=O)c1c(OC(=O)c3ccc(C4CCC(CCCC)CC4)cc3)c(CCCC)cc(NC(=O)C3CCC(CCCC)CC3)c1C2=O (stereo not shown)"
observedresult = -0.35

[[record]]
compound = "CCCCCc1cc(NC(=O)c2ccc(CCCC)cc2)c2c(c1OC(=O)c1ccc(CCCC)cc1)C(=O)c1c(OC(=O)c3ccc(CCCC)cc3)c(CCCCC)cc(NC(=O)c3ccc(CCCC)cc3)c1C2=O"
observedresult = -0.32

[[record]]
compound = "CCCCc1ccc(C(=O)Nc2ccc(OC(=O)c3ccc(CCCC)cc3)c3c2C(=O)c2c(NC(=O)c4ccc(CCCC)cc4)cc(C)c(OC(=O)c4ccc(CCCC)cc4)c2C3=O)cc1"
observedresult = -0.34


====

Recorded λmax, one value per entry.
- assayProtocol: λmax of the long-wave absorption band of the dye
- Format: physicochemical
- conditionsUsed: Table 1 / Examples; several values = several maxima
assayMetric: λmax (nm)

[[record]]
compound = "CCCCCC1CCC(c2ccc(C(=O)Nc3cc(CCCC)c(O)c4c3C(=O)c3c(NC(=O)c5ccc(C6CCC(CCCCC)CC6)cc5)cc(CCCC)c(OC(=O)c5ccc(C6CCC(CCCCC)CC6)cc5)c3C4=O)cc2)CC1 (stereo not drawn)"
observedresult = 540

[[record]]
compound = "CCCCc1ccc(C(=O)Nc2cc(CCCC)c(NC(=O)c3ccc(CCCC)cc3)c3c2C(=O)c2ccccc2C3=O)cc1"
observedresult = 475

[[record]]
compound = "CCCCc1cc(NC(=O)c2ccc(C3CCC(CCCC)CC3)cc2)c2c(c1OC(=O)CCC)C(=O)c1c(OC(=O)CCC)c(CCCC)cc(NC(=O)c3ccc(C4CCC(CCCC)CC4)cc3)c1C2=O (stereo not drawn)"
observedresult = 470

[[record]]
compound = "CCCCc1ccc(C(=O)Nc2cc(CCCC)c(O)c3c2C(=O)c2c(NC(=O)c4ccc(CCCC)cc4)cc(CCCC)c(OC(=O)c4ccc(CCCC)cc4)c2C3=O)cc1"
observedresult = 534

[[record]]
compound = "CCCCCC1CCC(c2ccc(C(=O)Nc3cc(CCCC)c(O)c4c3C(=O)c3c(NC(=O)c5ccc(C6CCC(CCCCC)CC6)cc5)cc(CCCC)c(OC(=O)C5CCC(CCCC)CC5)c3C4=O)cc2)CC1 (stereo not drawn)"
observedresult = 542

[[record]]
compound = "CCCCCC1CCC(c2ccc(C(=O)Nc3ccc(OC(=O)c4ccc(C5CCC(CCCCC)CC5)cc4)c4c3C(=O)c3c(NC(=O)c5ccc(C6CCC(CCCCC)CC6)cc5)cc(C)c(OC(=O)c5ccc(C6CCC(CCCCC)CC6)cc5)c3C4=O)cc2)CC1 (stereo not drawn)"
observedresult = 468

[[record]]
compound = "CCCCCC1CCC(c2ccc(C(=O)Nc3cc(CCCC)c(OC(=O)C4CCC(CCCC)CC4)c4c3C(=O)c3c(NC(=O)c5ccc(C6CCC(CCCCC)CC6)cc5)cc(CCCC)c(OC(=O)C5CCC(CCCC)CC5)c3C4=O)cc2)CC1 (stereo not drawn)"
observedresult = 475

[[record]]
compound = "CCCCCCc1ccc(C(=O)Nc2cc(CCCCC)c(O)c3c2C(=O)c2c(NC(=O)c4ccc(CCCCCC)cc4)cc(CCCCC)c(OC(=O)c4ccc(CCCCCC)cc4)c2C3=O)cc1"
observedresult = 542

[[record]]
compound = "CCCCCc1cc(NC(=O)c2ccc(CCCC)cc2)c2c(c1O)C(=O)c1c(OC(=O)c3ccc(CCCC)cc3)c(CCCCC)cc(NC(=O)c3ccc(CCCC)cc3)c1C2=O"
observedresult = 540

